Source: ChEMBL document CHEMBL1135657

- experimentalTarget: Amine oxidase [flavin-containing] B (Rattus norvegicus, UniProt P19643)
- Sequence (P19643 whole entry): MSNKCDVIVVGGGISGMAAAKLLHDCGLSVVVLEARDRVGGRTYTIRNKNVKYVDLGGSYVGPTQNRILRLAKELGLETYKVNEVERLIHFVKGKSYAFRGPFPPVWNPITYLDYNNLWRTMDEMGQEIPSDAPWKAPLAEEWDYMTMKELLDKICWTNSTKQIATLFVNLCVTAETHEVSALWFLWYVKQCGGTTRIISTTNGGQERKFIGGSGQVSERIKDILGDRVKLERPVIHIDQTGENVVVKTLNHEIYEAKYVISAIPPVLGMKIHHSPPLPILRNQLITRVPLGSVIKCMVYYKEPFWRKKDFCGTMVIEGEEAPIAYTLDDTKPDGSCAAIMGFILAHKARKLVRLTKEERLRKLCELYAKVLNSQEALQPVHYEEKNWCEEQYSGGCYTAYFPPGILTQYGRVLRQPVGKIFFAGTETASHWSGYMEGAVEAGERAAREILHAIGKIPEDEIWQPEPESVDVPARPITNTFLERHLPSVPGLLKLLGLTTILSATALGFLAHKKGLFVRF
- protocolSummary: In vitro inhibitory concentration against Monoamine oxidase B of rat brain homogenates; value ranges from 9.5-17.2
quantityKind: pIC50
Answers are plain numbers, as −log10 of the molar value.

Just so you know, measured pIC50 for C#CCNC(C)Cc1cccc(OC(=O)N(C)CC)c1 (stereo unspecified) came out at 4.89

----------
- experimentalTarget: Butyrylcholinesterase (Equus caballus, UniProt Q9N1N9)
- Sequence (Q9N1N9 whole entry): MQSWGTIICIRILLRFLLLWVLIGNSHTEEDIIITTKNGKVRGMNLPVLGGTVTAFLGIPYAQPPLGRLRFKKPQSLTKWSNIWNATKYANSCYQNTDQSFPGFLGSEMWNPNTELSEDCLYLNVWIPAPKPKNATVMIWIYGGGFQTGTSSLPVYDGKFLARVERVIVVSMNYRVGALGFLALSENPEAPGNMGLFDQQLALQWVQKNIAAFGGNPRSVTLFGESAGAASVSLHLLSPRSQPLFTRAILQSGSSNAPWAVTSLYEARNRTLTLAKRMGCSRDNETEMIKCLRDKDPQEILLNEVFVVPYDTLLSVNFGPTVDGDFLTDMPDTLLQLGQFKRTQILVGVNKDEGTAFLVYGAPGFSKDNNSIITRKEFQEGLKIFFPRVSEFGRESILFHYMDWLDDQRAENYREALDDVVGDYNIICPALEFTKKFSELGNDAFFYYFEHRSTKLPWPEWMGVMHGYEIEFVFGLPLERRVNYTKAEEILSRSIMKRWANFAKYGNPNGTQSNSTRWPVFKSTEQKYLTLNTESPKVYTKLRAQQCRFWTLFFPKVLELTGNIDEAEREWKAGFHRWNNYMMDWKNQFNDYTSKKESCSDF
- protocolSummary: In vitro inhibitory concentration against Butyrylcholinesterase of horse serum; value ranges from 0.45-1.08
quantityKind: IC50
I'd appreciate it if you wrote the number followed by its unit.

Consider C#CCN(C)C(C)Cc1cccc(OC(=O)N(C)C2CCCCC2)c1 (stereo unspecified) . Its measured IC50 is 670 nM
